# procedure.details: Cmax in CD rat at 2 mg/kg, po
# Assay type: ADME, organism-based
# Set-up: dose 2 mg/kg, route oral
# condition.set: in vivo
property.measured: Cmax (nM)

>>> result("COc1cc(/C=C2\\CCCN3C2=NO[C@H](c2cc(F)cc(F)c2)[C@@H]3C)ccc1-n1cnc(C)c1")
1300

###

# procedure.details: Drug level in brain of CD rat at 3 mg/kg, po measured after 3 hrs
# Type: ADME, organism-based
# condition.set: read-out: Drug uptake
property.measured: concentration at 3 h

>>> result("COc1cc(/C=C2\\CCCN3C2=NO[C@H](c2cc(F)cc(F)c2)[C@@H]3C)ccc1-n1cnc(C)c1")
"810 nM"

###

# procedure.details: Drug level in plasma of CD rat at 10 mg/kg, po measured after 3 hrs
# Assay type: ADME, organism-based
property.measured: concentration at 3 h (µM)

>>> result("COc1cc(/C=C2\\CCCN3C2=NO[C@H](c2cc(F)cc(F)c2)[C@@H]3C)ccc1-n1cnc(C)c1")
4.83

###

# procedure.details: Drug level in plasma of CD rat at 3 mg/kg, po measured after 3 hrs
# Type: ADME, organism-based
property.measured: concentration at 3 h (nM)

>>> result("COc1cc(/C=C2\\CCCN3C2=NO[C@H](c2cc(F)cc(F)c2)[C@@H]3C)ccc1-n1cnc(C)c1")
910

###

# system.name: Gamma-secretase
# procedure.details: Modulation of gamma secretase in HEK293 cells transfected with human APP with Swedish and London familial AD mutation assessed as reduction in Abeta42 levels incubated for 5 hrs by sandwich immuno-assay
pIC50: −log10 of the molar value.
property.measured: pIC50

>>> result("COc1cc(/C=C2\\CCCN3C2=NO[C@]3(CO)c2ccc(F)cc2)ccc1-n1cnc(C)c1")
7.54
>>> result("COc1cc(C2=NOCC3C(Oc4cc(F)cc(F)c4)CCCN23)ccc1-n1cnc(C)c1 (centres undefined)")
6.40
>>> result("COc1cc(-c2nnc3n2CCCN3C(C)c2cc(F)c(F)c(F)c2)ccc1-n1cnc(C)c1 (centres undefined)")
6.94
>>> result("COc1cc(/C=C2\\CCCN3C2=NOCC[C@@H]3c2cc(F)c(F)c(F)c2)ccc1-n1cnc(C)c1")
7.41
